Test system: Candida albicans
Assay: Antifungal activity against Candida albicans ATCC 10231 assessed as reduction in fungal growth incubated overnight by broth dilution method
Type: functional
Endpoint: MIC (µg/mL)
Report the figure in µg/mL without appending any unit label.

Task: I have this compound here, `CC(=O)O.COC(=O)[C@H]1[C@@H]2C[C@@H](O[C@@H]3O[C@H](C)[C@@H](O)[C@H](N)[C@@H]3O)/C=C/C=C/C=C/C=C/CC/C=C/C=C/[C@H](C)[C@@H](O)[C@@H](C)[C@H](C)OC(=O)C[C@H](O)C[C@H](O)C[C@H](O)CC[C@@H](O)[C@H](O)C[C@](O)(C[C@@H]1O)O2` , and I need its recorded MIC.
Result: 30
